# Protocol Notes: Acid dissociation constant, pKa of the compound
# Format: physicochemical
Below, each entry is listed with its recorded pKa.

[
  {
    "Compound String": "O=c1[nH]c(=O)c2[nH]c(=O)[nH]c2[nH]1",
    "pKa": 5.75
  }
]

The record that follows has no pKa shown yet.
Documented pKa of `CCc1oc2ccccc2c1C(=O)c1cc(Br)c(O)c(Br)c1` : 5.17

----------
# System: mitochondrial respiration
# Protocol Notes: Hepatotoxicity in rat liver mitochondria assessed as inhibition of mitochondrial respiration by measuring mitochondrial respiratory control ratio of oxygen consumption in presence of substrate and ADP to rate after complete conversion of ADP to ATP by Clark-type oxygen electrode method
# Format: toxicity
Below, each entry is listed with its recorded IC50.
API: value field is a number in µM; no unit string.

Documented IC50 of `CCc1cc(C(=O)N2CS(=O)(=O)c3ccccc32)cc(C#N)c1O` : 37

----------
Below, each entry is listed with its recorded dose excreted at 4 h.
# Protocol Notes: Drug excretion rate in rat urine at 3 mg/kg, po measured up to 4 hrs by HPLC analysis
# Format: ADME, organism-based
# Assay Conditions: read-out: Drug excretion
API: value field is a number in %; no unit string.

Documented dose excreted at 4 h of `COc1cc(C(=O)N2CS(=O)(=O)c3ccccc32)cc(Cl)c1O` : 0.1

Documented dose excreted at 4 h of O=C(c1cc(Cl)c(O)c(Cl)c1)N1CS(=O)(=O)c2ccccc21 [DOTINURAD] : 1.1

Documented dose excreted at 4 h of `N#Cc1cc(C(=O)N2CS(=O)(=O)c3ccccc32)cc(Cl)c1O` : 23

Documented dose excreted at 4 h of `C#Cc1cc(C(=O)N2CS(=O)(=O)c3ccccc32)cc(C#N)c1O` : 12.4

Documented dose excreted at 4 h of `O=C(c1cc(F)c(O)c(Cl)c1)N1CS(=O)(=O)c2ccccc21` : 4.3

----------
# Experimental Target: Cytochrome P450 2C9 (Homo sapiens, UniProt P11712)
# Sequence (P11712 whole entry): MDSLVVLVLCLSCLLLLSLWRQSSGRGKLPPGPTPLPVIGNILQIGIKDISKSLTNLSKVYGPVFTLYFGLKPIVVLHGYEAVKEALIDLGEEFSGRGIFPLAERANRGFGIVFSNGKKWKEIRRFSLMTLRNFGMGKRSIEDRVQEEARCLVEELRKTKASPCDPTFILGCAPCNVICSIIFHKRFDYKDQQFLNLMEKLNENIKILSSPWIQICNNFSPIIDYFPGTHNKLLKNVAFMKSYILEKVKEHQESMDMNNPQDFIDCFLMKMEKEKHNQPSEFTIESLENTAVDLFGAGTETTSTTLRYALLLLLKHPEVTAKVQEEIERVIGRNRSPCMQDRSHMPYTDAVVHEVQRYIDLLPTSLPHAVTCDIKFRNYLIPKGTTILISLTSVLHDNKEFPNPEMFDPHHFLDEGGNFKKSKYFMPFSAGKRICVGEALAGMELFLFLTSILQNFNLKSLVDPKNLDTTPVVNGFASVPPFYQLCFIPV
Observed Property: pIC50
Interpret pIC50 as the negative base-10 log of the concentration measured in mol/L.

Field pIC50 (Cytochrome P450 2C9 (Homo sapiens, UniProt P11712)), entry `N#Cc1cc(C(=O)N2CS(=O)(=O)c3ccccc32)cc(C2CC2)c1O` : 4.24

----------
# Experimental Target: Solute carrier family 22 member 12 (Homo sapiens)
# Protocol Notes: Inhibition of human URAT1 expressed in Xenopus laevis oocytes assessed as inhibition of [14C]uric acid uptake measured after 60 mins by liquid scintillation counter method
Observed Property: pIC50
Interpret pIC50 as the negative base-10 log of the concentration measured in mol/L.

Documented pIC50 of O=C(c1cc(Cl)c(O)c(Cl)c1)N1CS(=O)(=O)c2ccccc21 [DOTINURAD] : 7.43

----------
# Protocol Notes: AUC (0 to infinity) in rat at 0.3 mg/kg, po
# Type: ADME, organism-based
# Set-up: time infinity, route oral, dose 0.3 mg/kg
# Assay Conditions: in vivo
Observed Property: AUC(0-inf) (ng·h/mL)
API: value field is a number in ng·h/mL; no unit string.

Documented AUC(0-inf) of O=C(c1cc(Cl)c(O)c(Cl)c1)N1CS(=O)(=O)c2ccccc21 [DOTINURAD] : 5740

----------
# Protocol Notes: AUC (0 to infinity) in rat at 0.3 mg/kg, iv
# Format: ADME, organism-based
# Set-up: time infinity, route intravenous, dose 0.3 mg/kg
# Assay Conditions: in vivo
Observed Property: AUC(0-inf) (µg·h/mL)
API: value field is a number in µg·h/mL; no unit string.

Documented AUC(0-inf) of `O=C(c1cc(Cl)c(O)c(Cl)c1)N1CS(=O)(=O)c2ccccc21` : 6.62

----------
# Test system: mitochondrial respiration
# Protocol Notes: Hepatotoxicity in rat liver mitochondria assessed as inhibition of mitochondrial respiration by measuring mitochondrial respiratory control ratio of oxygen consumption in presence of substrate and ADP to rate after complete conversion of ADP to ATP at 100 uM by Clark-type oxygen electrode method
# Type: toxicity
Observed Property: inhibition at 100 µM (%)
API: value field is a number in %; no unit string.

Solved cases below.
[
  {
    "Compound String": "N#Cc1cc(C(=O)N2CCc3ccccc32)cc(C#N)c1O",
    "Result Unit": "%",
    "inhibition at 100 µM": 47
  },
  {
    "Compound String": "COc1cc(C(=O)N2CCc3ccccc32)cc(C#N)c1O",
    "Result Unit": "%",
    "inhibition at 100 µM": -10
  },
  {
    "Compound String": "COc1cc(C(=O)N2CS(=O)(=O)c3ccccc32)cc(Cl)c1O",
    "Result Unit": "%",
    "inhibition at 100 µM": 49
  }
]

Documented inhibition at 100 µM of `N#Cc1cc(C(=O)N2CCc3ccccc32)ccc1O` : 43

Documented inhibition at 100 µM of `N#Cc1cc(C(=O)N2CCc3ccccc32)cc(C(F)(F)F)c1O` : 40

Documented inhibition at 100 µM of `N#Cc1cc(C(=O)N2CS(=O)(=O)c3ccccc32)cc(C(F)(F)F)c1O` : 12

----------
# Protocol Notes: Cmax in rat at 3 mg/kg, po by HPLC analysis
# Type: ADME, organism-based
# Set-up: route oral, dose 3 mg/kg
# Assay Conditions: in vivo
Simple rule here: Cmax less than 4000 ng/mL is 1.0, otherwise 0.0.

Reference set, count: 5
[
  {
    "Compound": "CSc1cc(C(=O)N2CS(=O)(=O)c3ccccc32)cc(C#N)c1O",
    "Cat": 1.0
  },
  {
    "Compound": "N#Cc1cc(C(=O)N2CSc3ccccc32)cc(C(F)(F)F)c1O",
    "Cat": 1.0
  },
  {
    "Compound": "CC(C)c1cc(C(=O)N2CS(=O)(=O)c3ccccc32)cc(C#N)c1O",
    "Cat": 0.0
  },
  {
    "Compound": "N#Cc1cc(C(=O)N2CS(=O)(=O)c3ccccc32)cc(C2CC2)c1O",
    "Cat": 1.0
  },
  {
    "Compound": "O=C(c1cc(F)c(O)c(Cl)c1)N1CS(=O)(=O)c2ccccc21",
    "Cat": 0.0
  }
]

In: Problem: For the compound `O=C(c1cc(Cl)c(O)c(C(F)(F)F)c1)N1CS(=O)(=O)c2ccccc21` , is Cmax under 4000 ng/mL?
Out: 0.0

In: Problem: For the compound CCc1oc2ccccc2c1C(=O)c1cc(Br)c(O)c(Br)c1 [BENZBROMARONE] , is Cmax under 4000 ng/mL?
Out: 0.0

----------
# Experimental Target: Solute carrier family 22 member 12 (Homo sapiens)
# Sequence (Q96S37 whole entry): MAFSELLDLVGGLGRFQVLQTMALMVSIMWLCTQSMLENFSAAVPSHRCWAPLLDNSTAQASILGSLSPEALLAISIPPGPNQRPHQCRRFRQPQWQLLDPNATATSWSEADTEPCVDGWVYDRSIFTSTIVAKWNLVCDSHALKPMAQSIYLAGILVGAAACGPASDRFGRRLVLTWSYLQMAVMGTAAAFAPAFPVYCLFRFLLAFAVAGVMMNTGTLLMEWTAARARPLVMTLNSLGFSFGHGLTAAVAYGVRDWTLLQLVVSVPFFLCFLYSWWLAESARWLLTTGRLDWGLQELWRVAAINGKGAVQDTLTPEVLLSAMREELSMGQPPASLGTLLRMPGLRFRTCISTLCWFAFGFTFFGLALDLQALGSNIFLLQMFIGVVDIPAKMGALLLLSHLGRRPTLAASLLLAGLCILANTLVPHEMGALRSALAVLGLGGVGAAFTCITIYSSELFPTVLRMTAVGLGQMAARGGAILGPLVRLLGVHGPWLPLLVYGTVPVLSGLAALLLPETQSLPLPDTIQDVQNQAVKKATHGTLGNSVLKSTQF
# Protocol Notes: Inhibition of URAT1 in human RPTEC assessed as inhibition of [14C]uric acid uptake preincubated for 15 mins followed by [14C]uric acid addition and incubated under shaking condition for 2 hrs by scintillation counter method
# Type: tissue-based
Simple rule here: IC50 less than 20 µM is label 1, otherwise label 0.

[
  {
    "Compound": "N#Cc1cc(C(=O)N2CS(=O)(=O)c3ccccc32)cc(C(F)(F)F)c1O",
    "Cat": "label 0"
  },
  {
    "Compound": "N#Cc1cc(C(=O)N2CS(=O)(=O)c3ccccc32)cc(Cl)c1O",
    "Cat": "label 0"
  },
  {
    "Compound": "CSc1cc(C(=O)N2CCc3ccccc32)cc(C#N)c1O",
    "Cat": "label 0"
  },
  {
    "Compound": "CCc1cc(C(=O)N2CS(=O)(=O)c3ccccc32)cc(C#N)c1O",
    "Cat": "label 0"
  },
  {
    "Compound": "COc1cc(C(=O)N2CCc3ccccc32)cc(C#N)c1O",
    "Cat": "label 0"
  },
  {
    "Compound": "O=C(c1cc(F)c(O)c(Cl)c1)N1CS(=O)(=O)c2ccccc21",
    "Cat": "label 0"
  }
]

In: Problem: For the compound `CC(C)c1cc(C(=O)N2CS(=O)(=O)c3ccccc32)cc(C#N)c1O` , is IC50 under 20 µM?
Out: label 0

In: Problem: For the compound `O=C(c1cc(Cl)c(O)c(C(F)(F)F)c1)N1CS(=O)(=O)c2ccccc21` , is IC50 under 20 µM?
Out: label 1

In: Problem: For the compound `N#Cc1cc(C(=O)N2CS(=O)(=O)c3ccccc32)cc(C2CC2)c1O` , is IC50 under 20 µM?
Out: label 1

In: Problem: For the compound `COc1cc(C(=O)N2CS(=O)(=O)c3ccccc32)cc(C(F)(F)F)c1O` , is IC50 under 20 µM?
Out: label 1
